Item-by-item account of HC50
- System: human erythrocytes
- experiment.summary: Hemolysis assay, HC50 determination
- Type: cell-based
- condition.parameters: Table S1; footnote says lysis of sheep erythrocytes
Form entry: value (µg/mL) — number only.

Examples from the recorded data:
INSERT INTO assay_data (structure_as_smiles, recorded_metric, reported) VALUES
  ('CC(C)CCc1cn(-c2c(OCC(=O)N[C@H](CCCCN)C(=O)N[C@H](CCCNC(=N)N)Cn3cc(Cc4ccccc4)nn3)ccc3ccccc23)nn1.Cl.Cl', 'HC50', 32),
  ('CC(C)CCc1cn(-c2c(OCC(=O)N[C@H](CCCCN)C(=O)N[C@H](CCCNC(=N)N)Cn3cc(CC4CCCCC4)nn3)ccc3ccccc23)nn1', 'HC50', 32),
  ('CC(C)CCc1cnnn1-c1ccccc1OCC(=O)N[C@H](CCCCN)C(=O)N[C@H](CCCNC(=N)N)Cn1cc(CC2CCCCC2)nn1', 'HC50', 32),
  ('CC(C)CCOc1ccccc1-n1nncc1COCC(=O)N[C@H](CCCCN)C(=O)N[C@H](CCCNC(=N)N)Cn1cc(Cc2ccccc2)nn1', 'HC50', 19.8),
  ('CC(C)CCOc1ccccc1-n1nncc1COCC(=O)N[C@H](CCCCN)C(=O)N[C@H](CCCNC(=N)N)Cn1cc(CC2CCCCC2)nn1', 'HC50', 17.1);

Please find the next compound below.
Lab note: need HC50 for CC(C)CCc1cn(-c2c(OCC(=O)N[C@H](CCCCN)C(=O)N[C@H](CCCNC(=N)N)Cn3cc(C4CCCCC4)nn3)ccc3ccccc23)nn1.Cl.Cl on human erythrocytes, anyone have it?
32

* * *

- experiment.summary: Cytotoxicity (CC50) assay by CO-ADD
- Format: cell-based, human
- condition.parameters: human, HEK293 cells (ATCC CRL-1573); Table 1; cytotoxicity on HEK293 cells, tested at ≤32 µg/mL
recorded.metric: CC50

INSERT INTO measurements (structure_as_smiles, reported) VALUES
  ('CC(C)CCc1cn(-c2ccccc2OCC(=O)N[C@H](CCCNC(=N)N)Cn2cc(-c3ccc(F)cc3)nn2)nn1.Cl', '> 32 µg/mL'),
  ('CC(C)CCc1cn(-c2c(OCC(=O)N[C@H](CCCCN)C(=O)N[C@H](CCCNC(=N)N)Cn3cc(Cc4ccccc4)nn3)ccc3ccccc23)nn1.Cl.Cl', '32 µg/mL'),
  ('CC(C)CCOc1ccccc1-n1nncc1COCC(=O)N[C@H](CCCCN)C(=O)N[C@H](CCCNC(=N)N)Cn1cc(CC2CCCCC2)nn1', '> 32 µg/mL'),
  ('Cl.Cl.N=C(N)NCCC[C@H](Cn1cc(Cc2ccccc2)nn1)NC(=O)[C@@H](CCCCN)NC(=O)COc1ccccc1-c1cn(Cc2ccccc2)nn1', '> 32 µg/mL'),
  ('CC(C)CCc1cnnn1-c1c(OCC(=O)N[C@H](CCCNC(=N)N)Cn2cc(CC3CCCCC3)nn2)ccc2ccccc12.Cl', '> 32 µg/mL');

Please find the next compound below.
Any idea what CC50 was measured for CC(C)CCc1cnnn1-c1c(OCC(=O)N[C@H](CCCNC(=N)N)Cn2cc(C3CCCCC3)nn2)ccc2ccccc12 ?
21.9 µg/mL

* * *

Record set of MIC for target or system C. albicans ATCC 90028.
Form entry: value (µg/mL) — number only.

INSERT INTO measurements (structure_as_smiles, reported) VALUES
  ('CC(C)CCc1cn(-c2c(OCC(=O)N[C@H](CCCNC(=N)N)Cn3cc(Cc4ccccc4)nn3)ccc3ccccc23)nn1.Cl', 32);

Please find the next compound below.
Any idea what MIC was measured for CC(C)CCc1cn(-c2c(OCC(=O)N[C@H](CCCNC(=N)N)Cn3cc(C4CCCCC4)nn3)ccc3ccccc23)nn1 ?
32
